The reported measurements were obtained from ChEMBL document CHEMBL1130112.

# Assay: dissociation constant corresponding to the 4(5)-phenyl-2-thiomidazole
# Type: ADME
# Condition summary: read-out: pKa,2
Readout kind: pKa
Reply with the value as a number alone.

Smiles record | Readout kind | Test value
Clc1ccc(-c2c[nH]c(SCCc3c[nH]cn3)n2)cc1 | pKa | 7.1
CCCc1ccc(-c2c[nH]c(SCCc3c[nH]cn3)n2)cc1 | pKa | 7.03
O=[N+]([O-])c1cccc(-c2c[nH]c(SCCc3c[nH]cn3)n2)c1 | pKa | 6.89
CCCCOc1ccc(-c2cnc(SCCc3c[nH]cn3)[nH]2)cc1 | pKa | 7.06
c1ccc(-c2cnc(SCCc3c[nH]cn3)[nH]2)cc1 | pKa | 7.07
O=[N+]([O-])c1ccc(-c2cnc(SCCc3c[nH]cn3)[nH]2)cc1 | pKa | 6.94
Brc1cccc(-c2cnc(SCCc3c[nH]cn3)[nH]2)c1 | pKa | 7.08
O=S(=O)(Oc1ccc(-c2cnc(SCCc3c[nH]cn3)[nH]2)cc1)c1ccccc1 | pKa | 6.93

pKa reading for NC(=O)c1ccc(-c2c[nH]c(SCCc3c[nH]cn3)n2)cc1 : 7.07

pKa reading for CCCOc1cccc(-c2c[nH]c(SCCc3c[nH]cn3)n2)c1 : 7.04

pKa reading for NC(=O)c1cccc(-c2cnc(SCCc3c[nH]cn3)[nH]2)c1 : 7.05

----------
# Assay: dissociation constant corresponding to the 4(5)-alkylimidazole
# Format: ADME
# Condition summary: read-out: pKa,1
Readout kind: pKa
Reply with the value as a number alone.

Recorded pKa, per entry:
Smiles record | pKa
O=[N+]([O-])c1cccc(-c2c[nH]c(SCCc3c[nH]cn3)n2)c1 | 3.21
Brc1cccc(-c2cnc(SCCc3c[nH]cn3)[nH]2)c1 | 3.9
CCCOc1cccc(-c2c[nH]c(SCCc3c[nH]cn3)n2)c1 | 4.04
CCCc1ccc(-c2c[nH]c(SCCc3c[nH]cn3)n2)cc1 | 4.34
Clc1ccc(-c2c[nH]c(SCCc3c[nH]cn3)n2)cc1 | 4.12
NC(=O)c1cccc(-c2cnc(SCCc3c[nH]cn3)[nH]2)c1 | 4.01
O=S(=O)(Oc1ccc(-c2cnc(SCCc3c[nH]cn3)[nH]2)cc1)c1ccccc1 | 3.84
CCCCOc1ccc(-c2cnc(SCCc3c[nH]cn3)[nH]2)cc1 | 4.3
O=[N+]([O-])c1ccc(-c2cnc(SCCc3c[nH]cn3)[nH]2)cc1 | 3.13
NC(=O)c1ccc(-c2c[nH]c(SCCc3c[nH]cn3)n2)cc1 | 3.63

Now, please, on to the next compound.
pKa reading for c1ccc(-c2cnc(SCCc3c[nH]cn3)[nH]2)cc1 : 4.28

----------
Parameter 'readout' = Ki; parameter 'system' = Histamine H3 receptor (Rattus norvegicus, UniProt Q9QYN8).
Sequence (Q9QYN8 whole entry): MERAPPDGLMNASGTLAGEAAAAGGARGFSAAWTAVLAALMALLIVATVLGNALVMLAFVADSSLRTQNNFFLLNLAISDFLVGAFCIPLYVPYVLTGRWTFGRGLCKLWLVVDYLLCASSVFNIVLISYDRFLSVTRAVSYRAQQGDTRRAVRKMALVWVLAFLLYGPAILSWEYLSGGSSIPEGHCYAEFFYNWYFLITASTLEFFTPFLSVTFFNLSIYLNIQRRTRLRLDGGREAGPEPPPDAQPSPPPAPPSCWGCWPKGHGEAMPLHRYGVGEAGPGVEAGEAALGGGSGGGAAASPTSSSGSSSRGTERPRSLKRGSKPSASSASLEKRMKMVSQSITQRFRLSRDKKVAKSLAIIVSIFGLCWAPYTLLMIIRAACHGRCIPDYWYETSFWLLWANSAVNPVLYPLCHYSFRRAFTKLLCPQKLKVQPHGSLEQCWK
Record the value in nM, omitting the unit from your answer.

Smiles record | Target desc | Test value
c1ccc(-c2cnc(SCCc3c[nH]cn3)[nH]2)cc1 | Histamine H3 receptor (Rattus norvegicus, UniProt Q9QYN8) | 14.1
CCCOc1cccc(-c2c[nH]c(SCCc3c[nH]cn3)n2)c1 | Histamine H3 receptor (Rattus norvegicus, UniProt Q9QYN8) | 9.33
Clc1ccc(-c2c[nH]c(SCCc3c[nH]cn3)n2)cc1 | Histamine H3 receptor (Rattus norvegicus, UniProt Q9QYN8) | 35.5

Now, please, on to the next molecule.
Here Brc1cccc(-c2cnc(SCCc3c[nH]cn3)[nH]2)c1 was tested on Histamine H3 receptor (Rattus norvegicus, UniProt Q9QYN8), and its Ki came to 14.1
